# Test system: Ca9-22 (Head and Neck Carcinoma)
# test summary: combination Emax (second highest fraction inhibited in the dose matrix, 72 h); higher = more inhibition; extreme values may be limits of the assay
readout label: combination Emax
// response body must contain only the number

The examples below pair each entry with its known result.
>  <compound>
Cc1c2c(nn1C)CSCc1cc(n(C)n1)CSc1cc(c3ccccc3c1)OCCCc1c(C(=O)O)n(C)c3c-2c(Cl)ccc13 [AZD5991] + C1CN(CCC1(C(=O)N[C@@H](CCO)C2=CC=C(C=C2)Cl)N)C3=NC=NC4=C3C=CN4 [Capivasertib] (first compound max 1 µM, 7x7, partner max 3 µM)

>  <combination Emax>
0.242

$$$$
>  <compound>
CN(C)CCCOc1ccc(-c2ccc3ncc4c(c3c2)n(C2CCOCC2)c(=O)n4C)cn1 [AZD0156] + CCN(CCO)CCCOc1ccc2c(Nc3cc(CC(=O)Nc4cccc(F)c4)[nH]n3)ncnc2c1 [AZD2811] (first compound max 1 µM, 7x7, partner max 1 µM)

>  <combination Emax>
0.127

$$$$
>  <compound>
Cc1c2c(nn1C)CSCc1cc(n(C)n1)CSc1cc(c3ccccc3c1)OCCCc1c(C(=O)O)n(C)c3c-2c(Cl)ccc13 [AZD5991] + CC(=O)O[C@H]1C(=O)[C@@]2(C)[C@H]([C@H](OC(=O)c3ccccc3)[C@]3(O)C[C@H](OC(=O)[C@H](O)[C@@H](NC(=O)c4ccccc4)c4ccccc4)C(C)=C1C3(C)C)[C@]1(OC(C)=O)CO[C@@H]1C[C@@H]2O [Paclitaxel] (first compound max 1 µM, 7x7, partner max 3 µM)

>  <combination Emax>
0.963

$$$$

Reported combination Emax, compound C[C@@H](Oc1cc(-c2cnn(C3CCNCC3)c2)cnc1N)c1c(Cl)ccc(F)c1Cl [Crizotinib] + CC1=C(C(=CC=C1)Cl)NC(=O)C2=CN=C(S2)NC3=CC(=NC(=N3)C)N4CCN(CC4)CCO [Dasatinib] (first compound max 10 µM, 7x7, partner max 2 µM) : ____ 0.952
